Source listed as patent US20130315914A1.

biological target: soluble histidine-tagged form of human TLR4/MD2 complex (human, UniProt Q9Y6Y9 19-160); assay: competitive ELISA; coated 15C1 as competitor, soluble His-tagged human TLR4/MD2, Penta-His-HRP
Sequence (Q9Y6Y9 19-160, one chain of several): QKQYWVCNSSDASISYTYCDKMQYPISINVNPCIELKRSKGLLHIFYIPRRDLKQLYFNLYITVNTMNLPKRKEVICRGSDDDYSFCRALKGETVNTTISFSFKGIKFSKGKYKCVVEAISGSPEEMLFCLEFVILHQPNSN
Entries and their measured EC50 follow.

{"Binder": "1E11.C3 antibody (IgG1) (antibody, V domains shown) VH: QVQLQESGPGLVKPSDTLSLTCAVSGYPIRHGYSWHWIRQPPGKGLEWMGYIHYSGYTDFNPSLKTRITISRDTSKNQFSLKLSSVTAVDTAVYYCARKDSGNYFPYWGQGTLVTVSS VL: EIVLTQSPDFQSVTPKEKVTITCRASQSISDHLHWYQQKPDQSPKLLIKYASHAISGVPSRFSGSGSGTDFTLTINSLEAEDAATYYCQQGHSFPLTFGGGTKVEIK", "EC50": "0.119 µg/mL"}
{"Binder": "1E11.C2E4 antibody (IgG1) (antibody, V domains shown) VH: QVQLQESGPGLVKPSDTLSLTCAVSGYPIRFGYSWHWIRQPPGKGLEWMGYIHYSGYTDFNPSLKTRITISRDTSKNQFSLKLSSVTAVDTAVYYCARKDSGNYFPYWGQGTLVTVSS VL: EIVLTQSPDFQSVTPKEKVTITCRASQSISDHLHWYQQKPDQSPKLLIKYASHAISGVPSRFSGSGSGTDFTLTINSLEAEDAATYYCQQGYDYPLTFGGGTKVEIK", "EC50": "0.015 µg/mL"}
